target: ZFP SBS#1061 (synthetic); assay: EMSA; settings: tags: MBP fusion
Sequence (chain, as listed by the source): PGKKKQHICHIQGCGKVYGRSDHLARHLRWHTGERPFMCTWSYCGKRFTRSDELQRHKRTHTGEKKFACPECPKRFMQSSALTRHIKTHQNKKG
Assay Metric: pKd
Formally, pKd is defined as -log10 of the concentration c, with c in mol/L.

Qu. Return reported pKd; argument: GTTGCGGGG (dsDNA) DNA 1: GTTGCGGGG DNA 2: CCCCGCAAC
Ans. 9.78
